The measurements presented in this section are drawn from patent US12590081B2.

# target.under.test: GLP-1 receptor (Homo sapiens)
# Construct: expressed in transfected cells
# Sequence (P43220 24-463): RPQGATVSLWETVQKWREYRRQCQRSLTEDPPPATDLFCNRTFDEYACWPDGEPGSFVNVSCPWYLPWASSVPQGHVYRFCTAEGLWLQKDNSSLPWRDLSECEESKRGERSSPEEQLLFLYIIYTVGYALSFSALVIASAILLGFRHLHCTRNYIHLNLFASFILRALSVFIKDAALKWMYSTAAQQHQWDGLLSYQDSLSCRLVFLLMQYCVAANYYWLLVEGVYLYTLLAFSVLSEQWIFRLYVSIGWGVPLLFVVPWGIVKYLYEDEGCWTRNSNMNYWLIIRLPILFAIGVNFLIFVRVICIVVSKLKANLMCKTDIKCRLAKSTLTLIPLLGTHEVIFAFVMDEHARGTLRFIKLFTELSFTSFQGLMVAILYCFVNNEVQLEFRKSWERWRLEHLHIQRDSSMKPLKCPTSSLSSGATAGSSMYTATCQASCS
# assay: Agonist activity against GLP-1 receptor, CRE-luciferase reporter (ONE-Glo) in CHO-K1/CRE-luc/GLP-1 receptor cells
# Assay type: cell-based
# experimental.context: 6 h incubation, luciferase readout
test.readout: Emax
Phrase the answer as number then unit, nothing more needed.

Some entries whose results are on file:
{"columns": ["molecule", "assay.value"],
 "data": [
  ["N#Cc1ccc(COc2cccc(C3=CCN(Cc4nc5ccc(C(=O)O)cc5n4C[C@@H]4CCO4)CC3)n2)c(F)c1", "110%"],
  ["CC(Oc1cccc(C2=CCN(Cc3nc4ccc(C(=O)O)cc4n3C[C@@H]3CCO3)CC2)n1)c1ccc(Cl)cc1F (stereo partly shown)", "106%"],
  ["N#Cc1ccc(CSc2cccc(C3=CCN(Cc4nc5ccc(C(=O)O)cc5n4C[C@@H]4CCO4)CC3)n2)c(F)c1", "110%"],
  ["C[C@]1(c2ccc(Cl)cc2F)Oc2cccc(C3=CCN(Cc4nc5ccc(C(=O)O)nc5n4C[C@@H]4CCO4)CC3)c2O1", "107%"],
  ["C[C@]1(c2ccc(Cl)cc2F)Oc2cccc(C3=CCN(Cc4nc5ccc(C(=O)O)cc5n4C[C@@H]4CCO4)CC3)c2O1", "104%"],
  ["CC1(c2ccc(Cl)cc2F)Oc2cccc(C3=CCN(Cc4nc5ccc(C(=O)O)cc5n4C[C@@H]4CCO4)CC3)c2O1 (stereo partly shown)", "110%"]
]}

Endpoint output: Emax of `N#Cc1ccc(CSc2nc(C3=CCN(Cc4nc5ccc(C(=O)O)cc5n4C[C@@H]4CCO4)CC3)ccc2F)c(F)c1` . Value? 108%
